Data origin, for the record: paper PMC6818095

Experimental system: UniProt Q5U3Y7
Sequence (Q5U3Y7 1-176): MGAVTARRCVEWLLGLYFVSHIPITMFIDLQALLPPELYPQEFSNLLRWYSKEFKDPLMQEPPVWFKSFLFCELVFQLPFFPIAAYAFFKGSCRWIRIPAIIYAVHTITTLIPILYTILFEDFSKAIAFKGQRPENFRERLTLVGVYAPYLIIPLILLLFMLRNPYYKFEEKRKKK
Format: binding
Protocol conditions: relative to nonsubstituted 1H-[1,2,3]triazole carboxamide analogue 26
What increase of σ2 binding affinity compared to 26 was measured for each of the following?
Report the value in fold with no unit label.

Retrieve increase of σ2 binding affinity compared to 26 on UniProt Q5U3Y7; query COc1ccccc1Cn1cc(C(=O)NCCCCN2CCc3cc(OC)c(OC)cc3C2)nn1 [39a]
105

Retrieve increase of σ2 binding affinity compared to 26 on UniProt Q5U3Y7; query COc1ccc(-n2cc(C(=O)NCCCCN3CCc4cc(OC)c(OC)cc4C3)nn2)cc1 [24f]
186

Retrieve increase of σ2 binding affinity compared to 26 on UniProt Q5U3Y7; query COc1ccc(Cn2cc(C(=O)NCCCCN3CCc4cc(OC)c(OC)cc4C3)nn2)cc1 [39c]
205

Retrieve increase of σ2 binding affinity compared to 26 on UniProt Q5U3Y7; query COc1cccc(Cn2cc(C(=O)NCCCCN3CCc4cc(OC)c(OC)cc4C3)nn2)c1 [39b]
96

Retrieve increase of σ2 binding affinity compared to 26 on UniProt Q5U3Y7; query COc1cccc(-n2cc(C(=O)NCCCCN3CCc4cc(OC)c(OC)cc4C3)nn2)c1 [24e]
341

Retrieve increase of σ2 binding affinity compared to 26 on UniProt Q5U3Y7; query COc1cc2c(cc1OC)CN(CCCCNC(=O)c1cn(-c3ccccc3OC)nn1)CC2 [24d]
682

Retrieve increase of σ2 binding affinity compared to 26 on UniProt Q5U3Y7; query COc1cc2c(cc1OC)CN(CCCCNC(=O)c1cn(Cc3ccccc3)nn1)CC2 [39d]
82
